# ASSAYED_TARGET: Cellular tumor antigen p53 (Homo sapiens) (UniProt P04637)
# Sequence (P04637 whole entry, looked up): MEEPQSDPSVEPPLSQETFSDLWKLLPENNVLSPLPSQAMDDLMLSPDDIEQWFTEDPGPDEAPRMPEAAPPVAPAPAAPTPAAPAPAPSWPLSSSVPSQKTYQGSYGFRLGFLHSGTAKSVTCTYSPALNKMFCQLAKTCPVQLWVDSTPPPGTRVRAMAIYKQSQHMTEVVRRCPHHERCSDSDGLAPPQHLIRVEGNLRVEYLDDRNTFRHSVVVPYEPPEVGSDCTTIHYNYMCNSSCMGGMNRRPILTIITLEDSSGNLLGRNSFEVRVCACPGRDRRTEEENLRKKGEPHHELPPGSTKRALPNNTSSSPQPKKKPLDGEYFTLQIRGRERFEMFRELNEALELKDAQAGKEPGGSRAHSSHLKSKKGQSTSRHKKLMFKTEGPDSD
# MEASUREMENT_NOTES: TOX21_p53_BLA_p2_ratio: Tox21 HCT-116 p53 Agonism Beta-lactamase Assay, Ratio, Phase 2 (AID 2283592)
Records with an inconclusive call do not appear. The source made the active and inactive calls. Rule for the calls: active = hit-call score of the fitted dose curve at least 0.9, where 1 is the maximum; inconclusive = response in the unintended direction; inactive = score below 0.9.
Valid outcomes are listed here; reply with one: active, inactive

What was the test verdict on "CC(C)(O)C(=O)c1ccccc1" ? inactive

What was the test verdict on "O=C1c2ccccc2C(=O)c2c(O)c(O)cc(O)c21" ? active

What was the test verdict on "Nc1ccc(O)c(C(=O)O)c1" ? inactive

What was the test verdict on "Oc1ccc(Cc2ccccc2O)cc1" ? inactive

What was the test verdict on "Cc1cc(C(C)(C)C)c(O)c(C(C)(C)C)c1" ? inactive

What was the test verdict on "C[C@]12CC[C@@H]3c4ccc(O)cc4CC[C@H]3[C@@H]1C[C@@H](O)[C@@H]2O" ? inactive

What was the test verdict on CCCCCCCCCC=CCC1CC(=O)OC1=O (centres undefined) ? inactive

What was the test verdict on "CCCCCCCCCCCC[N+](C)(C)CCCCCCCCCCCC" ? active

What was the test verdict on "O=S(=O)(O)c1ccc2cc(O)ccc2c1" ? inactive

What was the test verdict on CC(O)COc1ccccc1 (centres undefined) ? inactive

What was the test verdict on "COc1cc([N+](=O)[O-])ccc1N" ? inactive

What was the test verdict on "Cc1cc(=O)oc2cc(O)ccc12" ? inactive

What was the test verdict on "CCOC(C)=O" ? inactive

What was the test verdict on "CC(C)(C)c1ccc(O)c(O)c1" ? inactive
